From: patent US20070254831A1

- TEST SYSTEM: T1, soluble human FcRn (human, UniProt P55899 24-297; P61769 21-119, biotinylated (Sulfo-NHS-LC-Biotin) in the ELISA; amine-coupled to CM5 chip in SPR)
- T1 construct: also called shFcRn; biotinylated shFcRn
- T1 sequence (P55899 24-297 limits assumed, chain 1 of 2): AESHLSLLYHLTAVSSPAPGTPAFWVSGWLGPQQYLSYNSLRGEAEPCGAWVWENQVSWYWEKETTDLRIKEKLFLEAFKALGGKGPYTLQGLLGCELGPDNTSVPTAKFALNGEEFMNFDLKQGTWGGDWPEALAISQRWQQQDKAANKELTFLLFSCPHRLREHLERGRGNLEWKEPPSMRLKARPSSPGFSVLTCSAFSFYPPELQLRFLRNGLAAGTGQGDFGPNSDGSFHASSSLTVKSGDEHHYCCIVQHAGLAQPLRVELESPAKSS
- T1 sequence (P61769 21-119 limits assumed, chain 2 of 2): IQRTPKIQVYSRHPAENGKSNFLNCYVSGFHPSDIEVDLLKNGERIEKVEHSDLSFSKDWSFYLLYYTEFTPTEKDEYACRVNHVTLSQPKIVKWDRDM
- METHOD SUMMARY: SPR, pH 6
pKd: −log10 of the molar value. Bridge positions count the residues as written; N and C are the ends. Square brackets hold non-standard residues; d marks the D form. Ends that are not written are not given here. Pen = CC(C)(S)[C@H](N)C(=O)O; NMeA = CN[C@@H](C)C(=O)O; Sar = CNCC(=O)O
Classify as follows. Reported pKd greater than or equal to 7: true (1). Reported pKd below: false (0).

Query block: Can QRFC[NMeA]GHFGGLYPCNGP-NH2 (disulfide 4-14 (inferred)) [Peptide No. 196] be said to have pKd at or above 7?
Result block: false (0)

Query block: Can RF[Pen]TGHFG[Sar]YPCNGP-NH2 (disulfide 3-12 (inferred), printed without the Leu after Sar) [Peptide No. 147] be said to have pKd at or above 7?
Result block: true (1)

Query block: Can RFXTGHFGGLYPC (Pen at 3; Sar at 9; NMeLeu at 10; disulfide; C-terminal amide) [Peptide No. 235] be said to have pKd at or above 7?
Result block: true (1)

Query block: Can RFXTGHFGGLYPCNGP (Pen at 3; NMeLeu at 10; disulfide; C-terminal amide) [Peptide No. 146] be said to have pKd at or above 7?
Result block: true (1)

Query block: Can QRFXTGHFGGLYPCNGP (Pen (L-penicillamine) at 4; disulfide; C-terminal amide) [Peptide No. 32] be said to have pKd at or above 7?
Result block: false (0)

Query block: Can QRFXTGHFGGLYPCNGP (Pen at 4; Sar at 9; disulfide; C-terminal amide) [Peptide No. 111] be said to have pKd at or above 7?
Result block: false (0)

Query block: Can QRFXTGHFGGLYPCNGP (Pen at 4; NMeTyr at 12; disulfide; C-terminal amide) [Peptide No. 114] be said to have pKd at or above 7?
Result block: false (0)

Query block: Can QRFCTGHFGGLYPCNGP-NH2 (disulfide 4-14 (inferred)) [SEQ ID NO:1] be said to have pKd at or above 7?
Result block: false (0)
